Target: hKOPr (Homo sapiens, UniProt P41145)
Sequence (P41145 whole entry): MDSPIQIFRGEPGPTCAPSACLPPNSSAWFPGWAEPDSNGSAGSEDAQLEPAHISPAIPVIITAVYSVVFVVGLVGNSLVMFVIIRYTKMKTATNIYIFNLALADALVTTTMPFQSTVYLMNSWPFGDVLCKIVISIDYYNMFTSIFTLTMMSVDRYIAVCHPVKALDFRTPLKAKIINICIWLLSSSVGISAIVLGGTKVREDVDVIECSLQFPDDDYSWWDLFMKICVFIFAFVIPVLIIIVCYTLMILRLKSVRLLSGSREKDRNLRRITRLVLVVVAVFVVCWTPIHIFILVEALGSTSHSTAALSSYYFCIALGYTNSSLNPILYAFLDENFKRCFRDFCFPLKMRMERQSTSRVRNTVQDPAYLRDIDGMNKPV
Format: binding
Where no end group is shown, it is not given here.
READOUT_KIND: Selectivity DOPr/KOPr
One number for each entry.

List Selectivity DOPr/KOPr for every entry below, keeping the order given.
1. YGAFLRRQFAVVT [DynB_G3A/K10 A]
2. YGAFLRRQFKVVT [DynB_G3A]
3. YGMFLRRHFKVVT [DynB_G3M/Q8H]

1. 317
2. 149
3. 459

Quick check: Selectivity DOPr/KOPr of YGMFLRRQFKVVT [DynB_G3M] ?
141

----------
Provide the reported pKi of each item.
Target: hMOPr (Homo sapiens)
Sequence (P35372 whole entry): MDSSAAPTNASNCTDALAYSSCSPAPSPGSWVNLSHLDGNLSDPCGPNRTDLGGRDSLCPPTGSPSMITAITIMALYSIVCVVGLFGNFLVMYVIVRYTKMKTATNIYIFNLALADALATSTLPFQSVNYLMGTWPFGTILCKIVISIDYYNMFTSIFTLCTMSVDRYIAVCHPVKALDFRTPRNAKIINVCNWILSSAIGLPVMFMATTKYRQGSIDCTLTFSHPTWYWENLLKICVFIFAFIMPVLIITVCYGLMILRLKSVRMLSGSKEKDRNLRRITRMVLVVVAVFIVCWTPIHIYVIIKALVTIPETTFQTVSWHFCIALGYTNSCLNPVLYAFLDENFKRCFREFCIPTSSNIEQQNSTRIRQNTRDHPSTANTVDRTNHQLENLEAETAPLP
Test: Competitive radio binding assay with [3H]-DAMGO on hMOPr-CHO cell membranes
Conditions: read-out: Ki hMOPr; [3H]-DAMGO 1 nM, 60 min 25°C; mean ± SEM
Where no end group is shown, it is not given here.
One number for each entry, as −log10 of the molar value.

For orientation, consider the following solved cases.
YGMFLRRQFKVVT [DynB_G3M] :: 6.93
YGMFSRRQFKVVT [DynB_G3M/L5S] :: 6.54
YGAFLRRAFKVVT [DynB_G3A/Q8A] :: 7.06

Now look at this entry.
Which pKi is reported for this sequence? FGGFLRRQFKVVT [DynB_Y1F]
6.66

----------
Molecular target: hDOPr (Homo sapiens, UniProt P41143)
Sequence (P41143 whole entry): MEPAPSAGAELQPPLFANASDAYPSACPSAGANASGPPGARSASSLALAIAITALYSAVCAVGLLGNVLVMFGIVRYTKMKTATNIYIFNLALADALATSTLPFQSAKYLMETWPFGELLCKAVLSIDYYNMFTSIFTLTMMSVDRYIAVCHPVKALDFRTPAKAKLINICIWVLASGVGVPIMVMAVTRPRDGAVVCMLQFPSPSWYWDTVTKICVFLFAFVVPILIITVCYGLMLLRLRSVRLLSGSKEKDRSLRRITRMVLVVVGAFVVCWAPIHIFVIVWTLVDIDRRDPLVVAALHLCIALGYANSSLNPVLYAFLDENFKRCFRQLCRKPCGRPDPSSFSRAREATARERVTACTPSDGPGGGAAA
Assay: [35S]GTPγS functional assay on hDOPr-CHO cell membranes
Assay type: biochemical
Conditions: read-out: hDOPr EC50, stimulation of [35S]GTPγS binding; Table 3; mean ± SEM
Method: CHO cells stably transfected with human KOPr, MOPr, and DOPr (hKOPr-CHO, hMOPr-CHO, and hDOPr-CHO, respectively) were provided by Prof. Liu-Chen (Temple University, Philadelphia, United States). The cells were grown in Gibco™ Dulbecco’s minimal essential medium (DMEM) for hKOPr-CHO or Gibco™ DMEM/F-12 for hMOPr and hDOPr. […] Functional assays were conducted on hKOPr-CHO, hMOPr-CHO, and hDOPr-CHO cell membranes (see above). […] Non-specific binding was determined using unlabeled 10 μM GTPγS. […]
Where no end group is shown, it is not given here.
READOUT_KIND: EC50 (nM)
Numbers only, in nM.

YGGFSRRQFKVVT [DynB_L5S] :: 310

Would you kindly look at the next entry?
// query EC50 value for entry YGAFLRRAFKVVT [DynB_G3A/Q8A]
1230

----------
Molecular target: hKOPr (Homo sapiens, UniProt P41145)
Experiment: cell-based
Assay type: cell-based
Settings: read-out: β-Arrestin recruitment, potency at hKOPr EC50
Where no end group is shown, it is not given here.
For each of the sequences below, state its pEC50.
One number for each entry, as −log10 of the molar value.

YGGFSRRQFKVVT [DynB_L5S] :: 6.84

In the following, a different sequence is considered.
Fill in the blank: the reported pEC50 of YGAFLRRAFKVVT [DynB_G3A/Q8A] is ____.
7.18

----------
Molecular target: hKOPr (Homo sapiens, UniProt P41145)
Assay type: binding
Settings: read-out: Ki hKOPr
Where no end group is shown, it is not given here.
Categorized via Ki: LOW (below 0.4 nM), MID (0.4 nM to below 2 nM), HIGH (2 nM or more)

Take a look at these entries with their results.
YGAFLRRQFKVVT [DynB_G3A] :: HIGH
YGAFLRRAFKVVT [DynB_G3A/Q8A] :: MID
YGMFLRRQFKVVT [DynB_G3M] :: MID
YGAFLRRHFKVVT [DynB_G3A/Q8H] :: LOW
YGGFSRRQFKVVT [DynB_L5S] :: LOW

Determine which band this sequence sits in: YGMFSRRQFKVVT [DynB_G3M/L5S]
HIGH

// bin(item) where item = YGAFSRRQFKVVT [DynB_G3A/L5S]
MID

Form: Item = YGGFLRRHFKVVT [DynB_Q8H] ; Class = ?
LOW

Input FGGFLRRQFKVVT [DynB_Y1F] ; output its category
HIGH

In plain terms, what class is YGMFLRRHFKVVT [DynB_G3M/Q8H] ?
LOW

Which category does the recorded Ki put YGAFLRRQFAVVT [DynB_G3A/K10 A] in?
MID

Values from paper PMC11557314
